assay.protocol: chemical genetic growth profiling, strain panel (AID 1159580);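 note: tested at 20 µM; growth read once vehicle control cultures reached saturation at 30 °C; 1 = growth at the plate median or of vehicle wells; lower values mean less growth of the strain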
measurement.conditions: S. cerevisiae deletion strains, growth OD, locus YJL092W, strain hpr5, active compounds read low
Hit rate of the full screen: of about 5,500 compounds, about 2,000 (36%) were called active. Inconclusive results (about 18%) are left out. The list shows a part of the results.
# if measured normalized growth < 1: yes  # else: no

COC1CC(OC2CCC3(C)C(CCC4C3CCC3(C)C(C5=CC(=O)OC5)C(OC(C)=O)CC43O)C2)OC(C)C1O (stereo unspecified) :: no

// query I wonder whether CN[C@H]1CC[C@@H](c2ccc(Cl)c(Cl)c2)c2ccccc21 has normalized growth below 1. Can you tell?
// result yes

// query I wonder whether C=CCSSSCC=C has normalized growth below 1. Can you tell?
// result yes

// query I wonder whether CO[C@@H]1[C@@H](OC(N)=O)[C@@H](O)[C@H](Oc2ccc3c(O)c(NC(=O)c4ccc(O)c(CC=C(C)C)c4)c(=O)oc3c2C)OC1(C)C has normalized growth below 1. Can you tell?
// result no

// query I wonder whether C=CCSCC=C has normalized growth below 1. Can you tell?
// result yes

// query I wonder whether C[C@]12CCC3C(CC[C@]4(O)C[C@@H](O)CC[C@]34C=O)[C@@]1(O)CCC2C1=CC(=O)OC1 (stereo partly specified) has normalized growth below 1. Can you tell?
// result yes

---

assay.protocol: chemical genetic growth profiling, strain panel (AID 1159580)
measurement.conditions: S. cerevisiae deletion strains, growth OD, locus YEL061C, strain CIN8, active compounds read low
Hit rate of the full screen: of about 5,500 compounds, about 2,000 (36%) were called active. About 18% were inconclusive and are not listed. This is one part of the list.
Let's look at some molecules and their measured normalized growth.

Here is how some molecules turned out for normalized growth.
NC(=O)c1cc([N+](=O)[O-])cc([N+](=O)[O-])c1 :: 1.01 (inactive)
CC(=O)[C@@]1(O)CCC2C3C=C(Cl)C4=CC(=O)[C@@H]5CC5[C@]4(C)C3CC[C@@]21C (some centres not stated) :: 1.01 (inactive)

// query Note normalized growth for the molecule shown: COC(=O)C(N)CS (configuration not stated)
// result 0.997 (inactive)

// query Note normalized growth for the molecule shown: O=[N+]([O-])c1cccnc1Oc1ccc(Cl)cc1
// result 0.977 (inactive)

---

Let's look at some compounds and their measured normalized growth.
assay.protocol: chemical genetic growth profiling, strain panel (AID 1159580)
measurement.conditions: S. cerevisiae deletion strains, growth OD, locus YJL129C, strain trk1, active compounds read low
About 2,000 (36%) of roughly 5,500 compounds were called active. Another 18% or so got no clear call; they are omitted. This is one part of the list.
Note: the reply should be a number with no unit written.

Here is how some compounds turned out for normalized growth.
Cc1c(OCC(F)(F)F)ccnc1CS(=O)c1nc2ccccc2[nH]1 (stereo unspecified) :: 1.04
CC1(C)S[C@@H]2[C@H](NC(=O)C(C(=O)O)c3ccccc3)C(=O)N2[C@H]1C(=O)O (stereo partly specified) :: 0.944
CC(C)c1cccc(C(C)C)c1O :: 0.992
COc1ccc(-c2cc(=O)c3c(O)c(OC)c(OC)c(OC)c3o2)cc1OC :: 0.949
CC(C)c1cccc(O)c(=O)c1 :: 0.0856
N#Cc1c(Cl)cccc1Cl :: 0.976

// query Note normalized growth for the compound shown: COc1ccc(-c2cc(=O)c3c(O)cc(O)cc3o2)cc1
// result 0.946

// query Note normalized growth for the compound shown: CC1(C)[C@@H]2CC[C@@]1(C)C(=O)C2
// result 1.03

// query Note normalized growth for the compound shown: CC1(C)O[C@@H]2CC3C4C[C@H](F)C5=CC(=O)CC[C@]5(C)C4[C@@H](O)C[C@]3(C)[C@]2(C(=O)CO)O1 (stereo partly specified)
// result 1.02

// query Note normalized growth for the compound shown: CC1(C)S[C@@H]2[C@H](NC(=O)[C@@H](N)c3ccc(O)cc3)C(=O)N2[C@H]1C(=O)O
// result 1

// query Note normalized growth for the compound shown: Nc1ccc(S(=O)(=O)Nc2ncccn2)cc1
// result 0.984

---

assay.protocol: chemical genetic growth profiling, strain panel (AID 1159580)
measurement.conditions: S. cerevisiae deletion strains, growth OD, locus YMR078C, strain ctf18, active compounds read low
Out of some 5,500 compounds screened, about 2,000 (36%) were called active. About 18% were inconclusive and are not listed. Some of the results follow.
Let's look at some compounds and their measured normalized growth.
Note: the reply should be a number with no unit written.

// query Note normalized growth for the compound shown: CC(=O)N1CCCC1C(=O)O (stereo unspecified)
// result 1.04

// query Note normalized growth for the compound shown: CC(C)Nc1nc(Cl)nc(NC(C)C)n1
// result 1.02

// query Note normalized growth for the compound shown: COC1CC(O[C@H]2CC[C@]3(C=O)C4CC[C@]5(C)C(C6=CC(=O)OC6)CC[C@]5(O)C4CC[C@]3(O)C2)OC(C)C1O (stereo partly specified)
// result 0.99

// query Note normalized growth for the compound shown: NCCCCN
// result 1

// query Note normalized growth for the compound shown: NCC(O)CC(=O)O (stereo unspecified)
// result 1

// query Note normalized growth for the compound shown: CC(C)(C)NCC(O)COc1cccc2c1C[C@H](O)[C@H](O)C2 (stereo partly specified)
// result 0.982

---

assay.protocol: chemical genetic growth profiling, strain panel (AID 1159580);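 note: tested at 20 µM; growth read once vehicle control cultures reached saturation at 30 °C; 1 = growth at the plate median or of vehicle wells; lower values mean less growth of the strain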
measurement.conditions: S. cerevisiae deletion strains, growth OD, locus YKL203C, strain TOR2
In all, about 5,500 compounds went through this assay and about 2,000 (36%) were called active. About 18% were inconclusive and are not listed. Cut-off read from the data, not from the text of the source: active = normalized growth mostly below about 0.91 (no sharp cut-off); inconclusive = no clear call, values can overlap the other calls; inactive = mostly above about 0.92. Some of the results follow.
Pick from active, inactive when you respond.

O=C(Nc1ccccc1C(=O)O)OCC1c2ccccc2-c2ccccc21 :: inactive
Cc1cc(Br)c(O)c(/C=N\NC(=S)NC(C)(C)C)c1 :: inactive
CN1/C(=C/C=C/c2ccc3ccccc3[n+]2C)C=Cc2ccccc21 :: active
CCCCCCCCCCCCSc1ncn[nH]1 :: inactive
COc1ccccc1N1CCN(C(=O)C(C)c2ccc(CC(C)C)cc2)CC1 (stereo unspecified) :: inactive

// query Identify the outcome logged in this assay for the compound shown: CC(C)(C)NC(=S)N/N=C\c1cc(Br)c(O)c(Br)c1
// result inactive

// query Identify the outcome logged in this assay for the compound shown: O=C(Nc1cc2ccccc2s1)N1CCN(Cc2c(F)cccc2Cl)CC1
// result inactive

---

assay.protocol: chemical genetic growth profiling, strain panel (AID 1159580);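 note: tested at 20 µM; growth read once vehicle control cultures reached saturation at 30 °C; 1 = growth at the plate median or of vehicle wells; lower values mean less growth of the strain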
measurement.conditions: S. cerevisiae deletion strains, growth OD, locus YNR052C, strain pop2
Hit rate of the full screen: of about 5,500 compounds, about 2,000 (36%) were called active. Another 18% or so got no clear call; they are omitted. No stated cut-off is given here; in the data, active means normalized growth mostly below about 0.91 (no sharp cut-off); inconclusive means no clear call, values can overlap the other calls; inactive means mostly above about 0.92. The list shows a part of the results.
Pick from active, inactive when you respond.

C[C@]12CCC3C(CC[C@]4(O)C[C@@H](O)CC[C@]34C=O)[C@@]1(O)CCC2C1=CC(=O)OC1 (stereo not given in full) :: inactive
CC(=O)OC1CC[C@@]2(C)C(CCC3C2CC[C@]2(C)C(C4=CC(=O)OC4)C(OC(C)=O)CC32O)C1 (stereo not given in full) :: inactive
COC1C(O)C(O[C@H]2CC[C@]3(C=O)C4C(CC[C@]3(O)C2)[C@@]2(O)CC[C@H](C3=CC(=O)OC3)[C@@]2(C)C[C@H]4OC(C)=O)OC(C)C1OC(C)=O (stereo not given in full) :: active
C[C@H]1O[C@@H](O[C@H]2[C@@H](O)C[C@H](O[C@H]3[C@@H](O)C[C@H](O[C@H]4CC[C@]5(C)C6C[C@@H](O)[C@]7(C)[C@@H](C8=CC(=O)OC8)CC[C@]7(O)C6CC[C@@H]5C4)O[C@@H]3C)O[C@@H]2C)C[C@H](O)[C@@H]1O (stereo not given in full) :: inactive

// query Identify the outcome logged in this assay for the compound shown: C[C@@H]1O[C@@H](O[C@H]2CC[C@]3(C=O)C4CC[C@]5(C)[C@@H](C6=CC(=O)OC6)CC[C@]5(O)C4CC[C@]3(O)C2)[C@H](O)[C@H](O)[C@H]1O (stereo not given in full)
// result inactive

---

Let's look at some compounds and their measured normalized growth.
assay.protocol: chemical genetic growth profiling, strain panel (AID 1159580);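 note: tested at 20 µM; growth read once vehicle control cultures reached saturation at 30 °C; 1 = growth at the plate median or of vehicle wells; lower values mean less growth of the strain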
measurement.conditions: S. cerevisiae deletion strains, growth OD, strain wtn01, active compounds read low
Among all 5,500 compounds or so, about 2,000 (36%) were called active. About 18% were inconclusive and are not listed. The list shows a part of the results.
Note: the reply should be a number with no unit written.

C[C@@H]1CC[C@@]23CCC4(C)[C@@](C=CC5[C@@]6(C)CCC(=O)C(C)(C)C6CC[C@]54C)(OC2=O)C3[C@H]1C (some centres undefined) :: 0.995
C[C@@H]1CC[C@@]23CCC4(C)[C@@](C=CC5[C@@]6(C)CC[C@H](O)C(C)(C)C6CC[C@]54C)(OC2=O)C3[C@H]1C (some centres undefined) :: 1
CC(=O)N1CCN(c2ccc(OCC3CO[C@](Cn4ccnc4)(c4ccc(Cl)cc4Cl)O3)cc2)CC1 (some centres undefined) :: 0.0951

// query Note normalized growth for the compound shown: CC1(C)C(=O)CC[C@@]2(C)C1C[C@@H](O)[C@@]1(C)C3=CC(=O)O[C@@H](c4ccoc4)[C@]3(C)CCC21 (some centres undefined)
// result 0.965
